Overview of recorded protein stability index for various sequences
Experiment: protein stability index of a GFP-peptide fusion (yeast GPS) (PSI 1-4); higher = more stable; sorted into four equal gates, so the index is relative within each strain
Settings: pdr5∆

[
  {
    "biopolymer sequence": "EDCDLVIMALMLMSKIG [POP5]",
    "protein stability index": 1.89
  },
  {
    "biopolymer sequence": "DVNALKFNNTQRESQIG [SNF12]",
    "protein stability index": 2.75
  },
  {
    "biopolymer sequence": "FKCQEKDKGVYVVTSDE [SIR2]",
    "protein stability index": 3.08
  },
  {
    "biopolymer sequence": "WESLAKKQNLSSHQRVF [SWP82]",
    "protein stability index": 2.71
  },
  {
    "biopolymer sequence": "LIKKAVSVRKHLERNRK [RPS13]",
    "protein stability index": 3.32
  },
  {
    "biopolymer sequence": "IALNLDTTVNDCLDKLL [SNF2]",
    "protein stability index": 3.06
  },
  {
    "biopolymer sequence": "GEVLGITRFGLSKMRDS [RPO31]",
    "protein stability index": 3.26
  },
  {
    "biopolymer sequence": "SIIKAKLPLLNESLIPL [YML103C/NUP188]",
    "protein stability index": 2.18
  },
  {
    "biopolymer sequence": "GDYVAYQLNGVAPFMIK [YMR129W/POM152]",
    "protein stability index": 1.49
  },
  {
    "biopolymer sequence": "KKRNPSKQNGSKFHFSW [PRP28]",
    "protein stability index": 2.62
  }
]

Just so you know, measured protein stability index for TTTMLQLFSTFDRLNGN [SSN2] came out at 3.12

Just so you know, measured protein stability index for KAKERLQALKANDEEAY [SNF2] came out at 2.51

Just so you know, measured protein stability index for LSGIIQDIYYLAQTLKL [RRI2] came out at 1.66

----------
Overview of recorded protein stability index for various sequences
Assay: protein stability index of a GFP-peptide fusion (yeast GPS) (PSI 1-4); higher = more stable; sorted into four equal gates, so the index is relative within each strain
Conditions: doa10∆
Respond with the number and no other words.

Just so you know, measured protein stability index for EEKSNEVKTPKIPLFTF [SIR4] came out at 2.82

Just so you know, measured protein stability index for NRLSRIHLYMLTFHTLK [YLR018C/POM34] came out at 1.42

----------
Test: protein stability index of a GFP-peptide fusion (yeast GPS) (PSI 1-4); higher = more stable; sorted into four equal gates, so the index is relative within each strain
Conditions: san1∆
Output schema: class label derived from protein stability index. Mapping: bin 0 (below 2), bin 1 (2 to below 3), bin 2 (3 or more)

Past entries and their recorded results:
[
  {
    "biopolymer sequence": "NSDHAKFTIEPGVLPVG [SNF2]",
    "assigned class": "bin 1"
  },
  {
    "biopolymer sequence": "RTLTAVHDKILEDLVFP [RPS7A]",
    "assigned class": "bin 2"
  },
  {
    "biopolymer sequence": "VRNYKPLINRLKHYNGY [SWI1]",
    "assigned class": "bin 1"
  },
  {
    "biopolymer sequence": "SYPVNGSQKTFEIDDEH [RPS6A]",
    "assigned class": "bin 1"
  }
]

In: Which class holds THIAESAKEIAKASGCD [MCD1] ?
Out: bin 2

In: Which class holds GVFDPASYAKYLIDHIK [RPL22A] ?
Out: bin 2

In: Which class holds RSNKIKVVKTPGGILRA [RPL34A] ?
Out: bin 1

In: Which class holds QFVDMVLPNTALKTSIQ [FAS1] ?
Out: bin 0

In: Which class holds LEFSALSAADIVAQSEV [RPO31] ?
Out: bin 2

In: Which class holds IDEIAYLFHNDRIIHTW [ECM29] ?
Out: bin 0

In: Which class holds VVVIDGKGHLVGRLASV [RPL16A] ?
Out: bin 0

In: Which class holds KVAQLRQTGPAKINEVY [NSL1] ?
Out: bin 1

In: Which class holds HANSVVALTGLLIRSKT [YML031W/NDC1] ?
Out: bin 0

Reference source: the supplement of paper PMC9732359
